Tested on: TAB165
Test: qHTS profiling for inhibitors of Plasmodium falciparum proliferation (AID 504749); also: nearly all actives have a fitted effect of over 60% in size; also: potency is read from the fitted curve at half-maximal effect
Conditions: P. falciparum in erythrocytes, SYBR Green DNA, 72 h; series mostly up to 28.7 µM
Inconclusive results are not listed. Activity calls are given as the source filed them. Calls follow the shape of the dose curve; as a rule, active = well fitted inhibition curve with a large enough effect; inconclusive = small, poorly fitted or top-dose-only effect; inactive = flat fitted curve, though single readings scatter. Numbered stars: 1 amine (or outer) side, 2 acyl side, 3 side chain; on linkers, the order of the positions; unused ones are H or OH. Bridge positions count the residues as written; N and C are the ends. Square brackets hold non-standard residues; d marks the D form. Peptide text beside a SMILES is read from it. * marks the point of attachment. ξ: configuration not given here. ΔAla(Z-3-ureido) = NC(=O)N/C=C(\N)C(=O)O; X1 = NC1=NCCC(C(N[*:1])C(=O)[*:2])N1; ξβ3hOrn = NCCCC(N)CC(=O)*; Orn = NCCC[CH](N)C(=O)O; Dap = NC[CH](N)C(=O)O
VALUE_TYPE: Potency

Example entries and their recorded answers appear below.
1) O=C(OCC1OC(OC(=O)c2cc(O)c(O)c(OC(=O)c3cc(O)c(O)c(O)c3)c2)[C@@H](OC(=O)c2cc(O)c(O)c(OC(=O)c3cc(O)c(O)c(O)c3)c2)C(OC(=O)c2cc(O)c(O)c(OC(=O)c3cc(O)c(O)c(O)c3)c2)C1OC(=O)c1cc(O)c(O)c(OC(=O)c2cc(O)c(O)c(O)c2)c1)c1cc(O)c(O)c(OC(=O)c2cc(O)c(O)c(O)c2)c1 (stereo partly specified) : 2 µM (active)
2) NCCCC(N)CC(=O)NCC1NC(=O)C(CO)NC(=O)C(N)CNC(=O)C(C2CCN=C(N)N2)NC(=O)/C(=C/NC(N)=O)NC1=O (stereo not drawn) (H-[Dap]S[Dap](ξβ3hOrn)[ΔAla(Z-3-ureido)][X1]; lactam 1-C; configuration not given here) : inactive
3) C=CC1=C(C(=O)O)N2C(=O)[C@@H](NC(=O)C(N=O)c3csc(N)n3)[C@H]2SC1 (stereo partly specified) : inactive
4) Cn1cc(O)nc1NC(=O)Nc1cccc(Cl)c1 : inactive
5) CC(C)CC1NC(=O)C(CCCN)NC(=O)C(C(C)C)NC(=O)C2CCCN2C(=O)C(Cc2ccccc2)NC(=O)C(CC(C)C)NC(=O)C(CCCN)NC(=O)C(C(C)C)NC(=O)C2CCCN2C(=O)C(Cc2ccccc2)NC1=O (stereo unspecified) (cyclo(FPV[Orn]LFPV[Orn]L); configuration not given here) : 0.0013 µM (active)

Now examine the next entry.
Item CC1(C)C(/C=C/C=C/C=C/C=C2\N(CCCCS(=O)(=O)O)c3ccc4ccccc4c3C2(C)C)=[N+](CCCCS(=O)(=O)[O-])c2ccc3ccccc3c21 has what recorded Potency? inactive

// provenance: PubChem BioAssay (NCATS)
